# Test system: Saccharomyces cerevisiae
# Protocol details: protein stability index of tFT-peptide fusion (C-terminal peptide) (PSI (0-1 scale)); higher = more stable (slower turnover)
# Settings: genetic background: das1 deletion; temperature: 30 C
Value type: protein stability index
Just the number, please.

Example entries begin here.
ENAHMQSAESCN [YLR236C C-terminal 12 aa]    0.682
LKKQIFEKVQKE [MET4 C-terminal 12 aa]    0.701
LLSGEPLAKKKE [HMLALPHA2 C-terminal 12 aa]    0.697
IHKENKEFYLIL [YGL118C C-terminal 12 aa]    0.703

Exercise: So what does the record say about protein stability index for IIDELQKCHMQE [CDC27 C-terminal 12 aa] ?
Key: 0.706

Exercise: So what does the record say about protein stability index for AIYPVLSEFRKM [SPT15 C-terminal 12 aa] ?
Key: 0.701

###

# Tested on: Saccharomyces cerevisiae
# Protocol details: protein stability index of tFT-peptide fusion (C-terminal peptide) (PSI (0-1 scale)); higher = more stable (slower turnover)
# Settings: genetic background: wild type; temperature: 30 C
Value type: protein stability index
Just the number, please.

Example entries begin here.
RKSERIKNKNGR    0.715
QKATRHRTRPRR    0.688
KKNKKKKKRARY    0.707
AVGQGAGSWGWE    0.691
CMCFFMGGWWCV    0.608
PRSAAQSQMRRK    0.711
PAPSPPPPRPLP    0.716
PCAPHPPPWVVL    0.606
APPPPLPPPPSP    0.689
SLPVSPLVRLLA    0.235

Exercise: So what does the record say about protein stability index for ISPFPSFPPTLS ?
Key: 0.734

Exercise: So what does the record say about protein stability index for RGGGGGGQVAVG ?
Key: 0.711

Exercise: So what does the record say about protein stability index for SSGAVGLVIVVC ?
Key: 0.276

###

In this section we review reported protein stability index values for a set of sequences.
# System: Saccharomyces cerevisiae
# Protocol details: protein stability index of tFT-peptide fusion (C-terminal peptide) (PSI (0-1 scale)); higher = more stable (slower turnover)
# Settings: genetic background: das1 deletion; temperature: 37 C
Just the number, please.

Example entries begin here.
LCWLVHFFLWVS    0.442
GGLWRRLCLGVG    0.469
GQLIYQHIFILG    0.676

Exercise: So what does the record say about protein stability index for IWIHSVGVECTS ?
Key: 0.544

Exercise: So what does the record say about protein stability index for FCGLLGVCLVMG ?
Key: 0.389

Exercise: So what does the record say about protein stability index for LLYPSKFCITAI ?
Key: 0.575

Exercise: So what does the record say about protein stability index for TALSRLFECFLS ?
Key: 0.768

Exercise: So what does the record say about protein stability index for LPSRWVPLPTPA ?
Key: 0.59

###

In this section we review reported protein stability index values for a set of sequences.
# Test system: Saccharomyces cerevisiae
# Protocol details: protein stability index of tFT-peptide fusion (C-terminal peptide) (PSI (0-1 scale)); higher = more stable (slower turnover)
# Settings: genetic background: das1 deletion; temperature: 30 C
Just the number, please.

RVDGKIVVTPQI [RPC53 C-terminal 12 aa]    0.701
IVNVMFCLVRGF [DSC3 C-terminal 12 aa]    0.42
KTGKEVRSGKQL [ATX1 C-terminal 12 aa]    0.689
DAEGQENAASSE [RIM1 C-terminal 12 aa]    0.676
VENEDEPLFIER [INP51 C-terminal 12 aa]    0.708

Exercise: Requested read-out protein stability index, target or system Saccharomyces cerevisiae, entry RVVDLIEYVAKA [TDH1 C-terminal 12 aa]
Key: 0.664

Exercise: Requested read-out protein stability index, target or system Saccharomyces cerevisiae, entry AAISFKEAARTD [HYP2 C-terminal 12 aa]
Key: 0.725

Exercise: Requested read-out protein stability index, target or system Saccharomyces cerevisiae, entry NKGSQLLAKLLK [PUF6 C-terminal 12 aa]
Key: 0.73

Exercise: Requested read-out protein stability index, target or system Saccharomyces cerevisiae, entry KQKDKEKNALLL [YBR113W C-terminal 12 aa]
Key: 0.689

Exercise: Requested read-out protein stability index, target or system Saccharomyces cerevisiae, entry LSHKGIKHLNIT [YGR266W C-terminal 12 aa]
Key: 0.702

Exercise: Requested read-out protein stability index, target or system Saccharomyces cerevisiae, entry IQEDSPVMDNNT [FAP1 C-terminal 12 aa]
Key: 0.722

Exercise: Requested read-out protein stability index, target or system Saccharomyces cerevisiae, entry CKTLNYARPQSN [BNA1 C-terminal 12 aa]
Key: 0.691

Exercise: Requested read-out protein stability index, target or system Saccharomyces cerevisiae, entry PSLRTRSSYTEE [FLR1 C-terminal 12 aa]
Key: 0.685

Exercise: Requested read-out protein stability index, target or system Saccharomyces cerevisiae, entry IEELTDTLNSTI [PEX29 C-terminal 12 aa]
Key: 0.706

Exercise: Requested read-out protein stability index, target or system Saccharomyces cerevisiae, entry STLSRPFTWEEI [ATG34 C-terminal 12 aa]
Key: 0.715

Exercise: Requested read-out protein stability index, target or system Saccharomyces cerevisiae, entry NKLLDKESVSED [YLR046C C-terminal 12 aa]
Key: 0.709

Exercise: Requested read-out protein stability index, target or system Saccharomyces cerevisiae, entry ELTSSDDCKDFI [YDR124W C-terminal 12 aa]
Key: 0.703

Exercise: Requested read-out protein stability index, target or system Saccharomyces cerevisiae, entry GEDTGPTVEEVD [SSA3 C-terminal 12 aa]
Key: 0.682

Exercise: Requested read-out protein stability index, target or system Saccharomyces cerevisiae, entry ASQAKNSIEDDV [GTR2 C-terminal 12 aa]
Key: 0.721

Exercise: Requested read-out protein stability index, target or system Saccharomyces cerevisiae, entry KHASELSSNSKF [CTA1 C-terminal 12 aa]
Key: 0.702

Exercise: Requested read-out protein stability index, target or system Saccharomyces cerevisiae, entry LEWLSNSLKNST [ARF1 C-terminal 12 aa]
Key: 0.735

Exercise: Requested read-out protein stability index, target or system Saccharomyces cerevisiae, entry LVSYFLKVQMNL [YNL095C C-terminal 12 aa]
Key: 0.514

Exercise: Requested read-out protein stability index, target or system Saccharomyces cerevisiae, entry DRDGCVNAVLLV [NSA2 C-terminal 12 aa]
Key: 0.701

Exercise: Requested read-out protein stability index, target or system Saccharomyces cerevisiae, entry ALLDPSDTLNFM [RDR1 C-terminal 12 aa]
Key: 0.697

Exercise: Requested read-out protein stability index, target or system Saccharomyces cerevisiae, entry TTDNVTVMVVFL [PTC1 C-terminal 12 aa]
Key: 0.489

Exercise: Requested read-out protein stability index, target or system Saccharomyces cerevisiae, entry FEWEDDESDEIA [ATG7 C-terminal 12 aa]
Key: 0.74

Exercise: Requested read-out protein stability index, target or system Saccharomyces cerevisiae, entry LSQRVKKEYAAN [COQ21 C-terminal 12 aa]
Key: 0.708

###

# Test system: Saccharomyces cerevisiae
# Protocol details: protein stability index of tFT-peptide fusion (C-terminal peptide) (PSI (0-1 scale)); higher = more stable (slower turnover)
# Settings: genetic background: wild type; temperature: 30 C
In this section we review reported protein stability index values for a set of sequences.
Just the number, please.

SGGGAGKRVCEG    0.704

Exercise: So what does the record say about protein stability index for PGCPRDRLLLQL ?
Key: 0.67

Exercise: So what does the record say about protein stability index for YLLLAFQRPTPG ?
Key: 0.694

Exercise: So what does the record say about protein stability index for KPLLSPPTIFPL ?
Key: 0.711

###

# Tested on: Saccharomyces cerevisiae
# Protocol details: protein stability index of tFT-peptide fusion (C-terminal peptide) (PSI (0-1 scale)); higher = more stable (slower turnover)
# Settings: genetic background: wild type; temperature: 30 C
Class boundaries, taken from values of protein stability index, are as follows: 0 (below 0.6), 1 (0.6 to below 0.7), 2 (0.7 or more)

Observe how each entry below is paired with its result.
GGGVGLGGYGEG    1
IVSPGSLAGCSV    1
PFSSVATFLSRL    2
TLSFPFRPLRLA    0

Exercise: Class (by measured protein stability index) for DSSPGSHPPHRG
Key: 2

Exercise: Class (by measured protein stability index) for PSRLSLLWVNPP
Key: 2

Exercise: Class (by measured protein stability index) for FAFRGFLIGCGV
Key: 0

Exercise: Class (by measured protein stability index) for IIRAGVPLSISE
Key: 1

###

# Tested on: Saccharomyces cerevisiae
# Protocol details: protein stability index of tFT-peptide fusion (C-terminal peptide) (PSI (0-1 scale)); higher = more stable (slower turnover)
# Settings: genetic background: wild type; temperature: 30 C
Value type: protein stability index
Just the number, please.

Example entries begin here.
KFKRLTKFYARQ    0.311
FESFHLENRGEK    0.706
PPRVFGFFPFPP    0.774
VGCEGGRRGVGG    0.65
PQSIHASIYFRL    0.634

Shifting focus to the sequence that follows.
Exercise: So what does the record say about protein stability index for QFSRSFHSLPPT ?
Key: 0.683

All figures here come from the supplement of paper PMC10724198.
